molecular target: REV-ERBα LBD (Homo sapiens, UniProt P20393, DEL324-422); assay: biochemical; details: FRET assay; 6xHistag-REV-ERBα LBD with FITC-labeled SMRT corepressor peptide; read-out: REVERBα (Agonism of REV-ERBα, EC50)
Sequence (P20393 with tags, fused parts or gaps DEL324-422): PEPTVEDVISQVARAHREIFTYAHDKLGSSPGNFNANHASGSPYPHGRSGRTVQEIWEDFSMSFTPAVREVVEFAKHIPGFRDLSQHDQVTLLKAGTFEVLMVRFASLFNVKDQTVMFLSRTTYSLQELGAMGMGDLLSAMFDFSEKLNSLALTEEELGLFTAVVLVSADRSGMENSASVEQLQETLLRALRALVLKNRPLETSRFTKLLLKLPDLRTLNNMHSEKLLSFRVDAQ
Sequence (Q9Y618 2335-2356 partner limits assumed): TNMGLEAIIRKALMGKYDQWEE
recorded.endpoint: EC50

What the record says about `Cc1ccccc1-c1cc2c(cc1F)c([C@H](NS(=O)(=O)C1CC1)C(F)F)cn2CC(C)(C)C` : EC50 is < 100 nM

Record `CC(C)(C)Cn1cc([C@H](NS(=O)(=O)C2CC(F)(F)C2)C(F)F)c2ccc(-c3ccccc3C(F)(F)F)cc21` , field EC50: < 100 nM

The value of EC50 measured for the compound `CC(C)(C)Cn1cc([C@H](NS(=O)(=O)C2CC2)C(F)F)c2cc(F)c(-c3cc(F)cnc3C(F)F)cc21` turned out to be < 100 nM

Item: `CC(C)(C)Cn1cc([C@H](NS(=O)(=O)C2CC2)C(F)F)c2cc(F)c(-c3ncc(F)cc3C#N)cc21` | EC50: < 100 nM

The compound identified as `O=S(=O)(N[C@@H](c1cn(C2COC2)c2cc(-c3ccc(F)cc3C(F)(F)F)c(F)cc12)C(F)F)C1CC1` registered its EC50 at 100 to 1000 nM

The reported EC50 of the compound CC(NS(=O)(=O)C1CC1)c1cn(CC(C)(C)C)c2cc(-c3ncccc3OC(F)F)c(F)cc12 (centres unmarked) was < 100 nM

Entry under test: `O=S(=O)(N[C@@H](c1cn(C2COC2)c2nc(-c3ccc(F)cc3C(F)(F)F)c(F)cc12)C(F)F)C1CC1` . Its EC50 was 100 to 1000 nM

The reported EC50 of the compound `Cc1cnc(C(F)(F)F)c(-c2nc3c(cc2F)c([C@H](NS(=O)(=O)C2CC2)C(F)F)cn3CC(C)(C)C)c1` was < 100 nM

Given item `Cc1cnc(C(F)(F)F)c(-c2cc3c(cc2F)c([C@H](NS(=O)(=O)C2CC2)C(F)F)cn3CC(C)(C)C)c1` , the value recorded as its EC50 is < 100 nM

Looking up `CC(C)(C)Cn1cc([C@H](NS(=O)(=O)C2CC2)C(F)F)c2cc(F)c(-c3ncccc3C(F)F)cc21` , I found its EC50 recorded as < 100 nM

EC50 for `CC(C)(C)Cn1cc([C@H](NS(=O)(=O)C2CCC2)C(F)F)c2ccc(-c3cccnc3C(F)(F)F)cc21` is < 100 nM

For `COc1cccc(C#N)c1-c1ccc2c([C@H](NS(=O)(=O)C3CC3)C(F)(F)F)cn(CC(C)(C)C)c2c1` the compound record lists EC50 as 100 to 1000 nM

Form: compound = `CC(C)(C)Cn1cc([C@H](NS(=O)(=O)C2CC2)C(F)F)c2cc(F)c(C3=CCOCC3)cc21` ; EC50 = < 100 nM

Query `CC(C)(C)Cn1cc([C@H](NS(=O)(=O)C2CCC2)C(F)F)c2cc(F)c(-c3ccc(F)cc3C(F)(F)F)cc21` yields EC50 of < 100 nM
